These measurements were taken from patent US4837224A.

# measurement_description: Toxicity: LD 50 after intravenous administration in the male mouse
# Format: in vivo
# experimental_parameters: in vivo; male mouse, intravenous
recorded_endpoint: LD50 (mg/kg)
Numbers only, in mg/kg.

The reported LD50 of the compound CC[C@H](C(N)=O)N1CCCC1=O [compound B] was 5600

* * *

# measurement_description: Toxicity: LD 50 after intravenous administration in the male rat
# experimental_parameters: in vivo
recorded_endpoint: LD50 (mg/kg)
Numbers only, in mg/kg.

The reported LD50 of the compound CC[C@H](C(N)=O)N1CCCC1=O [compound B] was 5000
